Molecular target: DNA-dependent protein kinase catalytic subunit (Homo sapiens)
Test: Inhibition of human DNA-PK
metricName: IC50 (nM)
Numbers only, in nM.

Task item: # query: IC50 of entry C[C@@H]1COCCN1c1nc(-c2ccnc3[nH]ccc23)nc2c1ccn2S(C)(=O)=O
Reply: 119

###

Entries with their measured IC50, system Cyclin-dependent kinase 2 (Homo sapiens):

C[C@@H]1COCCN1c1nc(-c2ccnc3[nH]ccc23)nc2c1ccn2S(C)(=O)=O
> 10 µM

Task item: # query: IC50 of entry C[C@@H]1COCCN1c1nc(-c2cncc3[nH]ccc23)nc2c1ccn2S(C)(=O)=O
Reply: > 10 µM

###

Assay: Tmax in BALB/c mouse at 75 mg/kg,po measured upto 24 hrs by LC-MS/MS analysis
Type: ADME, organism-based
Conditions: in vivo
metricName: Tmax (min)
One number for each entry, in min.

Task item: # query: Tmax of entry C[C@@H]1COCCN1c1cc(C2([S@](C)(=N)=O)CC2)nc(-c2cc[nH]c3nccc2-3)n1
Reply: 15

###

Molecular target: UniProt P10635
Sequence (P10635 whole entry): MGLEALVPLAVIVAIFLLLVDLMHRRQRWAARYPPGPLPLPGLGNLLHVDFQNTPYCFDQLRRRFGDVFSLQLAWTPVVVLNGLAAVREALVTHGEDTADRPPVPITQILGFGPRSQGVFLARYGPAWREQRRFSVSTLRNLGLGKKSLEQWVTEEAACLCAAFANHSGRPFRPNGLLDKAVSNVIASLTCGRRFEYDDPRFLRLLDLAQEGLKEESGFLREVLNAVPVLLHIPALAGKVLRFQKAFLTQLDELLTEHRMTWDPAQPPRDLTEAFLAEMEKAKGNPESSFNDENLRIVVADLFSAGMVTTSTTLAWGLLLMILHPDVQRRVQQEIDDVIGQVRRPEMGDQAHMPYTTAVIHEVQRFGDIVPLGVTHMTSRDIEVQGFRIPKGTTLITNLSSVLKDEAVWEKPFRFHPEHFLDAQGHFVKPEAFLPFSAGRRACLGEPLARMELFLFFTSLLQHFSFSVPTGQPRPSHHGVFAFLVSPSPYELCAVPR
Assay: Time dependent inhibition of CYP2D6 (unknown origin) at 10 uM relative to control
Format: ADME
Settings: read-out: TDI
metricName: inhibition at 10 µM (%)
Give bare numbers, in %.

C[C@@H]1COCCN1c1nc(-c2cncc3[nH]ccc23)nc2c1ccn2S(C)(=O)=O
3.71

Task item: # query: inhibition at 10 µM of entry C[C@@H]1COCCN1c1nc(-c2ccnc3[nH]ccc23)nc2c1ccn2S(C)(=O)=O
Reply: 2

###

Target: ATR/ATRIP (Homo sapiens, UniProt Q13535)
Sequence (Q13535 whole entry): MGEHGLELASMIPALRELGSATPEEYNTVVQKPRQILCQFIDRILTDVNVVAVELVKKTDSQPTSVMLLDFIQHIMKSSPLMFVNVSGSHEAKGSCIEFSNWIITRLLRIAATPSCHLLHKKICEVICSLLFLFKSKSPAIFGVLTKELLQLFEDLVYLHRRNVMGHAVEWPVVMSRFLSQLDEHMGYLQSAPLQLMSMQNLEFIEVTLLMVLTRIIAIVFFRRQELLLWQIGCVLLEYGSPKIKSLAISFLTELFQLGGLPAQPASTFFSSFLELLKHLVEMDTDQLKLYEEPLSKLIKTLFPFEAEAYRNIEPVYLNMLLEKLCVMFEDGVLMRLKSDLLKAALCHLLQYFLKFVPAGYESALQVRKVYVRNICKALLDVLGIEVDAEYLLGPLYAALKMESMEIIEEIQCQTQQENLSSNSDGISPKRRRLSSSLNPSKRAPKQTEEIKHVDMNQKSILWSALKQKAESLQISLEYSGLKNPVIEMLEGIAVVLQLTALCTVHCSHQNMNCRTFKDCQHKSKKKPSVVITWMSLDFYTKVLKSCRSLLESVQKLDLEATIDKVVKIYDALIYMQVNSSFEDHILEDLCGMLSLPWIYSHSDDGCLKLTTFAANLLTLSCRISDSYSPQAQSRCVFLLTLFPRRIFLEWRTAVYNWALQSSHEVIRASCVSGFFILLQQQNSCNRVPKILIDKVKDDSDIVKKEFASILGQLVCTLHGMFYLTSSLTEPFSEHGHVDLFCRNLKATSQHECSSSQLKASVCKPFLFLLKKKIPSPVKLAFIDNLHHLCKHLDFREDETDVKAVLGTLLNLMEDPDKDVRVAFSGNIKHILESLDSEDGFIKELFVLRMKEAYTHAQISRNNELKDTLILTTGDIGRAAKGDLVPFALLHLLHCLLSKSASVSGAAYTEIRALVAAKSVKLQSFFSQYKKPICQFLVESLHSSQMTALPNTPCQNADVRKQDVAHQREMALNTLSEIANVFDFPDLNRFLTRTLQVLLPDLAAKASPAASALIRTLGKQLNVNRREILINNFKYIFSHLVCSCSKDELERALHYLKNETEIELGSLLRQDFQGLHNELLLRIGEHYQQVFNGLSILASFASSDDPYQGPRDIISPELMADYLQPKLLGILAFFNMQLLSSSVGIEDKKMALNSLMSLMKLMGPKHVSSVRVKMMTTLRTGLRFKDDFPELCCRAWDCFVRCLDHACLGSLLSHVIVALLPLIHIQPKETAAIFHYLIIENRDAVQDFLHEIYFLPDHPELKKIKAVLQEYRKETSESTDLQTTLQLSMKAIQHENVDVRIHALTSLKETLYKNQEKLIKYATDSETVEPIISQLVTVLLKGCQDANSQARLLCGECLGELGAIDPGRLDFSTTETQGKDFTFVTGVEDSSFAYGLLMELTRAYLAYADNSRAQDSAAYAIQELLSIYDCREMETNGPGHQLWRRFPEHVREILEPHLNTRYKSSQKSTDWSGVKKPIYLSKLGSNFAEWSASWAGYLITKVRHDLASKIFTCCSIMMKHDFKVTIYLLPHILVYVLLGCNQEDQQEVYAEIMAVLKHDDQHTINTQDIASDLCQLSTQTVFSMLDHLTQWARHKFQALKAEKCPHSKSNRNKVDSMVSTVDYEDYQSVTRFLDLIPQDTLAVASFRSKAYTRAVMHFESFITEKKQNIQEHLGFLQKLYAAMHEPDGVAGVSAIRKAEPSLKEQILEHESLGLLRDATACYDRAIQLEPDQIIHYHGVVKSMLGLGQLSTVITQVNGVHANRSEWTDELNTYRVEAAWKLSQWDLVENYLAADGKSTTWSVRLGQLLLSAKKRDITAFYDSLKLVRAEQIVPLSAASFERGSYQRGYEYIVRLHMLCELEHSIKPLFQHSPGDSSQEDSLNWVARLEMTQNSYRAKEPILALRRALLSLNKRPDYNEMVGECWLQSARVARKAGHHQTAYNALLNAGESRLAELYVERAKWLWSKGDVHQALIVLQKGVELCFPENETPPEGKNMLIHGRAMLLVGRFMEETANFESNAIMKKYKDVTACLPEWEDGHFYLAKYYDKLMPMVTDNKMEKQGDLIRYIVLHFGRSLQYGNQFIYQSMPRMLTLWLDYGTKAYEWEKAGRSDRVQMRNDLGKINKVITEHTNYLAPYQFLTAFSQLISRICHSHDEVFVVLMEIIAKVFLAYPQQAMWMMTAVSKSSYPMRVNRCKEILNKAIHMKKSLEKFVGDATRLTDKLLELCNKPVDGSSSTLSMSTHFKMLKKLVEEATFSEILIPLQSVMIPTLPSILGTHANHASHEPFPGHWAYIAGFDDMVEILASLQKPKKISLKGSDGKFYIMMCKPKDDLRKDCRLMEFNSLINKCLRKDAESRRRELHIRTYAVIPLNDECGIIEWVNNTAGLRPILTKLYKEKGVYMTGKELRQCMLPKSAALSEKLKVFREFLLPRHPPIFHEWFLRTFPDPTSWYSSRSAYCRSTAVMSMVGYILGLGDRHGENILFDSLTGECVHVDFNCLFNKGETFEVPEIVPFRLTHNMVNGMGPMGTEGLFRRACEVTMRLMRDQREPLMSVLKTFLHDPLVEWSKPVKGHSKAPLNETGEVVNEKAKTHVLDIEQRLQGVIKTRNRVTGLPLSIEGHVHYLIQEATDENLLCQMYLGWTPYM
Sequence (Q8WXE1 whole entry, further chain): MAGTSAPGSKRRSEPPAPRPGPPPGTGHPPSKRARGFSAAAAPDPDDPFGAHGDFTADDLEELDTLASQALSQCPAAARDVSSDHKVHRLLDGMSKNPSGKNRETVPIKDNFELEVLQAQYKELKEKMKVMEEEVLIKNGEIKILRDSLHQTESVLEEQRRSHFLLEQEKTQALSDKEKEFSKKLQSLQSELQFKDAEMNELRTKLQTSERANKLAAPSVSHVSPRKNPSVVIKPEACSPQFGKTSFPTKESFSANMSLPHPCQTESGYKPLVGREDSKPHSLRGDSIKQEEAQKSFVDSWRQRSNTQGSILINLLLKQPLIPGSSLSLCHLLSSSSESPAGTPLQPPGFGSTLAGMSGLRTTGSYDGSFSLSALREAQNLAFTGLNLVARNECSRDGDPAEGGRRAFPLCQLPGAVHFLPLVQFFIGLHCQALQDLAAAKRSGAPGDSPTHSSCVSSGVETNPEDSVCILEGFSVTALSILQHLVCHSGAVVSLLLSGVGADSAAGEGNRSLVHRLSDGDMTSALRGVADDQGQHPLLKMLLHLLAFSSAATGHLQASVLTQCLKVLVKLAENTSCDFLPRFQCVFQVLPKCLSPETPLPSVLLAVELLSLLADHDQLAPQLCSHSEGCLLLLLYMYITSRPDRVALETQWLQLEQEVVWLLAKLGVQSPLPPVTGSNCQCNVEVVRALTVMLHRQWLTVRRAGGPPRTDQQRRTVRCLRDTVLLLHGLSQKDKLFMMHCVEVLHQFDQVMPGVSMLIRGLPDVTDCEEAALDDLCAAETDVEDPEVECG
Test: Inhibition of ATR/ATRIP (unknown origin) using 5-FAM-AK-17 as substrate preincubated with compound for 10 mins followed by ATP addition and measured after 240 mins by mobility shift assay
metricName: IC50 (nM)
One number for each entry, in nM.

C[C@@H]1COCCN1c1nc(-c2cccc3[nH]ccc23)nc2c1ccn2S(=O)(=O)c1cccs1
84.9
C[C@@H]1COCCN1c1nc(-c2cccc3[nH]ccc23)nc2c1ccn2S(=O)(=O)C1CCCCC1
205

Field: IC50. Fill in for each record below.
1. C[C@@H]1COCCN1c1nc(-c2cncc3ccccc23)nc2c1ccn2S(C)(=O)=O
2. C[C@@H]1COCCN1c1nc(-c2cccc3ccccc23)nc2c1ccn2S(C)(=O)=O
3. C[C@@H]1COCCN1c1nc(-c2ccc3[nH]ccc3c2)nc2c1ccn2S(C)(=O)=O
4. C[C@@H]1COCCN1c1nc(-c2cccc3[nH]ccc23)nc2c1ccn2S(=O)(=O)c1ccccc1
5. C[C@@H]1COCCN1c1nc(-c2cccc3[nH]ccc23)nc2c1CS(=O)(=O)C2
6. CCS(=O)(=O)n1ccc2c(N3CCOC[C@H]3C)nc(-c3cccc4[nH]ccc34)nc21
7. C[C@@H]1COCCN1c1nc(-c2ccc3[nH]cnc3c2)nc2c1ccn2S(C)(=O)=O

Reply:
46.9
39.5
53.1
270
32.1
4.3
245

###

pIC50: −log10 of the molar value.
Entries with their measured pIC50, system Tyrosine-protein kinase BTK (Homo sapiens, UniProt Q06187):

C[C@@H]1COCCN1c1nc(-c2cncc3[nH]ccc23)nc2c1ccn2S(C)(=O)=O
< 5.00

Now look at this entry.
Task item: # query: pIC50 of entry C[C@@H]1COCCN1c1nc(-c2ccnc3[nH]ccc23)nc2c1ccn2S(C)(=O)=O
Reply: < 5.00

###

Record form. Attribute: pIC50. Fill in for each entry.
Target: Interleukin-1 receptor-associated kinase 4 (Homo sapiens, UniProt Q9NWZ3)
Sequence (Q9NWZ3 whole entry): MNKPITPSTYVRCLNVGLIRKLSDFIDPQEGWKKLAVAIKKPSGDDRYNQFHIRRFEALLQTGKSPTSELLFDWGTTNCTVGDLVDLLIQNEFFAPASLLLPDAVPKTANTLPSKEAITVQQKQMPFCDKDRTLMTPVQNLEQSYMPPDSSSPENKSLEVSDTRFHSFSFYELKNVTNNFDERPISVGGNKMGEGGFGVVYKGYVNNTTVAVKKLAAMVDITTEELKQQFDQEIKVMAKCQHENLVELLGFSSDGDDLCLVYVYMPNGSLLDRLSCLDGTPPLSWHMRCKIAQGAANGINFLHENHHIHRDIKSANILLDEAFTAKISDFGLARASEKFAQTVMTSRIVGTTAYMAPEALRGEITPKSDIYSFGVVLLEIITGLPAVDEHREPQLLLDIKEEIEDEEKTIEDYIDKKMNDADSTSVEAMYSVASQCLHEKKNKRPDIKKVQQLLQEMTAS
pIC50: −log10 of the molar value.

C[C@@H]1COCCN1c1nc(-c2cncc3[nH]ccc23)nc2c1ccn2S(C)(=O)=O
< 5.00

Now look at this entry.
Task item: # query: pIC50 of entry C[C@@H]1COCCN1c1nc(-c2ccnc3[nH]ccc23)nc2c1ccn2S(C)(=O)=O
Reply: < 5.00

###

Target: Phosphatidylinositol 4,5-bisphosphate 3-kinase catalytic subunit alpha isoform (Homo sapiens)
Sequence (P42336 whole entry, canonical isoform): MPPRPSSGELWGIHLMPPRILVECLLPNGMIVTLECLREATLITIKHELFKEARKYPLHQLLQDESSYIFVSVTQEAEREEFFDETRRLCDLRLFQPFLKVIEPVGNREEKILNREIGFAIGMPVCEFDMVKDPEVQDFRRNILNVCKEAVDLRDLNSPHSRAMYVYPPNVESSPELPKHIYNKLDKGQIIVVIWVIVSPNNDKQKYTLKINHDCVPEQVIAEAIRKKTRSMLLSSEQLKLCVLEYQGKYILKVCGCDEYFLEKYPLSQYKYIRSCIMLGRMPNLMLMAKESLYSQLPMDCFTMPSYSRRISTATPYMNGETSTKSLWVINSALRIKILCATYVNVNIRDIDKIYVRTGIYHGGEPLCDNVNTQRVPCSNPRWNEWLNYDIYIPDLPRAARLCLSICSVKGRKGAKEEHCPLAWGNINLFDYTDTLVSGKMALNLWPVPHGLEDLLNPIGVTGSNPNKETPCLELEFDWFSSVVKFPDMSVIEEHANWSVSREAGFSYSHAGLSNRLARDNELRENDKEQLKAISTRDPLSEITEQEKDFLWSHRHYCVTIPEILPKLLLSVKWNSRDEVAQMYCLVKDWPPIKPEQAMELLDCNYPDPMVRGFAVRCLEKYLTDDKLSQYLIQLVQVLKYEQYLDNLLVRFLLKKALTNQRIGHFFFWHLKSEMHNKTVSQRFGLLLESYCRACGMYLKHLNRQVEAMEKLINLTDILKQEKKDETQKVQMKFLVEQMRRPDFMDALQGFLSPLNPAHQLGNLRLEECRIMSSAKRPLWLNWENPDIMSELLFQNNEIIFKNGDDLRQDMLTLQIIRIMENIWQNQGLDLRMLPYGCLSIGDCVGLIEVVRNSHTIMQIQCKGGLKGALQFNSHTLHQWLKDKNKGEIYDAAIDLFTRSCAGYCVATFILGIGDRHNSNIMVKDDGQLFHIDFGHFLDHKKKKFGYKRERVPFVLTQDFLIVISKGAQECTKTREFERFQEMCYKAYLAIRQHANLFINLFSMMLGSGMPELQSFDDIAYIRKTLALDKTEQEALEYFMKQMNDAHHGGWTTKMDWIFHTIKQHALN
Test: Inhibition of human PI3Kalpha
metricName: IC50 (µM)
Numbers only, in µM.

Task item: # query: IC50 of entry C[C@@H]1COCCN1c1nc(-c2ccnc3[nH]ccc23)nc2c1ccn2S(C)(=O)=O
Reply: 2.06

###

Molecular target: Tyrosine-protein kinase Mer (Homo sapiens)
Sequence (Q12866 whole entry): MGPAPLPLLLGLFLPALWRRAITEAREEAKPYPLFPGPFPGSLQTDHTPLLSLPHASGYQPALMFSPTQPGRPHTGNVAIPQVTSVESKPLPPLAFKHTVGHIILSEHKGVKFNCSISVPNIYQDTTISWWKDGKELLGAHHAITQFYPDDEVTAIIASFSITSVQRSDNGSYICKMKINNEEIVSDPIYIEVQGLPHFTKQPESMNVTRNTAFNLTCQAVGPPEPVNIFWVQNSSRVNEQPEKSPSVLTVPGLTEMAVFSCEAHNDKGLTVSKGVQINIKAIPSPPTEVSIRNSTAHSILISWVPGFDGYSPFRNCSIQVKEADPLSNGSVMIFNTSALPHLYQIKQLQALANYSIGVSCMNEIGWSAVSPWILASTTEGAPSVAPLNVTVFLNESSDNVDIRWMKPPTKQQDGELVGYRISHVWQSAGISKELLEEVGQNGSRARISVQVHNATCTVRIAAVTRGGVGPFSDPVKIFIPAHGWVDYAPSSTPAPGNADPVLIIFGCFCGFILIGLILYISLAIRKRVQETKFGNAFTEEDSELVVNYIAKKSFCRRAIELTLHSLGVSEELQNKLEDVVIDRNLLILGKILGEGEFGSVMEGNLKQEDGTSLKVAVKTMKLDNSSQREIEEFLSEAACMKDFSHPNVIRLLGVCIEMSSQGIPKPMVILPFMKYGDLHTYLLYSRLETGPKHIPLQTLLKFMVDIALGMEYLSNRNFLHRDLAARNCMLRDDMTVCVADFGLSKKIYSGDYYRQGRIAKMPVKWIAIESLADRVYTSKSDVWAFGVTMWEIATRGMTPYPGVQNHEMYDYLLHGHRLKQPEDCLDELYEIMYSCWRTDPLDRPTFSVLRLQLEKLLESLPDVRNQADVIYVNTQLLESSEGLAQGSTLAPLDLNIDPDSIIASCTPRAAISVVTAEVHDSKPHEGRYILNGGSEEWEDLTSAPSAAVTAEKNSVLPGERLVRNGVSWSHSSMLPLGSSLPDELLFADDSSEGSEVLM
metricName: IC50

Task item: # query: IC50 of entry C[C@@H]1COCCN1c1nc(-c2ccnc3[nH]ccc23)nc2c1ccn2S(C)(=O)=O
Reply: > 10 µM

###

Assay: Plasma protein binding in mouse
Format: ADME, cell-free
Settings: read-out: PPB (converted)
Record form. Attribute: fraction unbound. Fill in for each entry.

C[C@@H]1COCCN1c1nc(-c2ccnc3[nH]ccc23)nc2c1ccn2S(C)(=O)=O
0.005

Now look at this entry.
Task item: # query: fraction unbound of entry C[C@@H]1COCCN1c1nc(-c2cncc3[nH]ccc23)nc2c1ccn2S(C)(=O)=O
Reply: 0.006

###

Record form. Attribute: Papp B→A. Fill in for each entry.
Test: Apparent permeability across basolateral to apical side in human Caco-2 cells
Format: ADME, cell-based
Numbers only, in ×10⁻⁶ cm/s.

C[C@@H]1COCCN1c1nc(-c2ccnc3[nH]ccc23)nc2c1ccn2S(C)(=O)=O
32.5

Now look at this entry.
Task item: # query: Papp B→A of entry C[C@@H]1COCCN1c1nc(-c2cncc3[nH]ccc23)nc2c1ccn2S(C)(=O)=O
Reply: 30.2

###

Assay: AUCinfinity in BALB/c mouse at 75 mg/kg,po measured upto 24 hrs by LC-MS/MS analysis
Assay type: ADME, organism-based
Settings: in vivo
metricName: AUC(0-inf)
Note to self: number, then unit, no commentary.

Task item: # query: AUC(0-inf) of entry C[C@@H]1COCCN1c1cc(C2([S@](C)(=N)=O)CC2)nc(-c2cc[nH]c3nccc2-3)n1
Reply: 41600 ng·h/mL
